# subject_of_test: T1, human CXCR2 (human, UniProt P25025 1-360)
# T1 sequence: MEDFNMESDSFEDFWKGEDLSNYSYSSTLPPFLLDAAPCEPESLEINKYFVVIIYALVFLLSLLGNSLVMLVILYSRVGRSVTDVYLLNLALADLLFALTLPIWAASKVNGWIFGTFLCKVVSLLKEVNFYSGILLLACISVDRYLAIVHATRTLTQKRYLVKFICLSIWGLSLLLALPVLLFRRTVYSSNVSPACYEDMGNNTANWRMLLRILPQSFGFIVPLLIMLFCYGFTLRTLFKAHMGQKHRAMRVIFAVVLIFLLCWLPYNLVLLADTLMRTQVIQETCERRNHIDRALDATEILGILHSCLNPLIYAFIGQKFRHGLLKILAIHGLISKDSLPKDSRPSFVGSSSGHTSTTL
# protocol_text: cell-based or functional assay
measure: IC50, CXCL8, Tango assay (pM)
Respond numerically; units are pM and should not be typed.

BKO-4A8 variant VL N94Y (antibody, human IgG4 S228P, lambda, V domains shown, IgG4 S228P, lambda; parental heavy chain; also called 4A8 VL N94Y) VH: EVQLLESGGGLVQPGGSLRLSCAASGFTFSSSTMSWVRQAPGKGLEWVSAISGRGRNTYYADSVKGRFTISRDNSRNTLYLQMNSLRAEDTAVYYCAIQMGYWGQGILVTVSS VL: QSALTQPPSASGSPGQSVTISCIGTSSDVGGYNYVSWYQQHPDKAPKLMIYEVNKRPSGVPDRFSGSKSGNTASLTVSGLQAEDEADYYCSSYAGYNNFGVFGGGTKLTVLG; 105
BKO-4A8 variant VH M34Q (antibody, human IgG4 S228P, lambda, V domains shown, IgG4 S228P, lambda; parental light chain; also called 4A8 VH M34Q) VH: EVQLLESGGGLVQPGGSLRLSCAASGFTFSSSTQSWVRQAPGKGLEWVSAISGRGRNTYYADSVKGRFTISRDNSRNTLYLQMNSLRAEDTAVYYCAIQMGYWGQGILVTVSS VL: QSALTQPPSASGSPGQSVTISCIGTSSDVGGYNYVSWYQQHPDKAPKLMIYEVNKRPSGVPDRFSGSKSGNTASLTVSGLQAEDEADYYCSSYAGNNNFGVFGGGTKLTVLG; 77.6

Turning to the following binder.
Query :: Data request, read-out IC50, CXCL8, Tango assay, for BKO-4A8 variant VL N52S (antibody, human IgG4 S228P, lambda, V domains shown, IgG4 S228P, lambda; parental heavy chain; also called 4A8 VL N52S) VH: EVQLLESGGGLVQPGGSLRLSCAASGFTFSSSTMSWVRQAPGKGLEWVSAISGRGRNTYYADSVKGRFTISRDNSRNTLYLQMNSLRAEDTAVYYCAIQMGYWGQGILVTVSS VL: QSALTQPPSASGSPGQSVTISCIGTSSDVGGYNYVSWYQQHPDKAPKLMIYEVSKRPSGVPDRFSGSKSGNTASLTVSGLQAEDEADYYCSSYAGNNNFGVFGGGTKLTVLG
Result :: 126
